test-protocol: In vitro metabolic stability in liver microsomes, human
Assay type: in vitro ADME
condition-context: pH 7.3, read-out: CLint (µL/min/mg protein) human
endpoint-label: microsomal CLint at 2 µM (µL/min/mg)
State just the number; it will be interpreted in µL/min/mg.

molecule="N[C@@H]1c2ccccc2CC12CCN(c1ncc(C#CCOc3ccc4ccc(=O)[nH]c4c3)nc1CO)CC2 [Compound A24]" endpoint_label="microsomal CLint at 2 µM" units_text=µL/min/mg quantitative_readout=1.6
molecule="CN(CC#Cc1cnc(N2CCC3(CC2)Cc2ccccc2[C@H]3N)c(CO)n1)c1ccc(C(N)=O)cc1 [Compound A55]" endpoint_label="microsomal CLint at 2 µM" units_text=µL/min/mg quantitative_readout=14.7
molecule="Cn1nccc1NCC#Cc1cnc(N2CCC3(CC2)Cc2ccccc2[C@H]3N)c(CO)n1 [Compound A61]" endpoint_label="microsomal CLint at 2 µM" units_text=µL/min/mg quantitative_readout=13
molecule="NC(=O)c1ccc(OCC#Cc2cnc(N3CCC4(CC3)Cc3ccccc3[C@H]4N)c(CO)n2)cc1Cl [Compound A54]" endpoint_label="microsomal CLint at 2 µM" units_text=µL/min/mg quantitative_readout=12.1
molecule="NC(=O)Cn1cc(OCC#Cc2cnc(N3CCC4(CC3)Cc3ccccc3[C@H]4N)c(CO)n2)cn1 [Compound A82]" endpoint_label="microsomal CLint at 2 µM" units_text=µL/min/mg quantitative_readout=8.6
molecule="NC(=O)Cc1cccc(OCC#Cc2cnc(N3CCC4(CC3)Cc3ccccc3[C@H]4N)c(CO)n2)c1 [Compound A59]" endpoint_label="microsomal CLint at 2 µM" units_text=µL/min/mg quantitative_readout=10.7

Exercise: Form field: reported microsomal CLint at 2 µM of Nc1ncc(OCC#Cc2cnc(N3CCC4(CC3)Cc3ccccc3[C@H]4N)c(CO)n2)cn1 [Compound A19]
Key: 8.2

Exercise: Please answer likewise for N#Cc1ccc(OCC#Cc2cnc(N3CCC4(CC3)Cc3ccccc3[C@H]4N)c(CO)n2)cc1 [Compound A12]
Key: 0.2

Exercise: Next entry: NC(=O)c1ccc(OCC#Cc2cnc(N3CCC4(CC3)Cc3ccccc3[C@H]4N)cn2)cc1Cl [Compound A62]
Key: 2.6

Exercise: Can you handle Nc1cc(OCC#Cc2cnc(N3CCC4(CC3)Cc3ccccc3[C@H]4N)c(CO)n2)ccn1 [Compound A26] next?
Key: 2.2

Exercise: Thanks! And NC(=O)c1cccc(OCC#Cc2cnc(N3CCC4(CC3)Cc3ccccc3[C@H]4N)c(CO)n2)c1 [Compound A27] ?
Key: 4

Exercise: Try the molecule N[C@@H]1c2ccccc2CC12CCN(c1ncc(C#CCOc3ccc(C(O)C(F)(F)F)cc3)nc1CO)CC2 (some centres unmarked) [Compound A80]
Key: 2.7

Exercise: Also check N[C@@H]1c2ccccc2CC12CCN(c1ncc(C#CCOc3ccc(C(F)(F)F)cc3)nc1CO)CC2 [Compound A14]
Key: 1.4

Exercise: How about NC(=O)c1cccc(NCC#Cc2cnc(N3CCC4(CC3)Cc3ccccc3[C@H]4N)c(CO)n2)c1 [Compound A81] ?
Key: 14.2
